Molecular target: PLK4 (Homo sapiens, UniProt O00444)
Sequence (O00444 1-970): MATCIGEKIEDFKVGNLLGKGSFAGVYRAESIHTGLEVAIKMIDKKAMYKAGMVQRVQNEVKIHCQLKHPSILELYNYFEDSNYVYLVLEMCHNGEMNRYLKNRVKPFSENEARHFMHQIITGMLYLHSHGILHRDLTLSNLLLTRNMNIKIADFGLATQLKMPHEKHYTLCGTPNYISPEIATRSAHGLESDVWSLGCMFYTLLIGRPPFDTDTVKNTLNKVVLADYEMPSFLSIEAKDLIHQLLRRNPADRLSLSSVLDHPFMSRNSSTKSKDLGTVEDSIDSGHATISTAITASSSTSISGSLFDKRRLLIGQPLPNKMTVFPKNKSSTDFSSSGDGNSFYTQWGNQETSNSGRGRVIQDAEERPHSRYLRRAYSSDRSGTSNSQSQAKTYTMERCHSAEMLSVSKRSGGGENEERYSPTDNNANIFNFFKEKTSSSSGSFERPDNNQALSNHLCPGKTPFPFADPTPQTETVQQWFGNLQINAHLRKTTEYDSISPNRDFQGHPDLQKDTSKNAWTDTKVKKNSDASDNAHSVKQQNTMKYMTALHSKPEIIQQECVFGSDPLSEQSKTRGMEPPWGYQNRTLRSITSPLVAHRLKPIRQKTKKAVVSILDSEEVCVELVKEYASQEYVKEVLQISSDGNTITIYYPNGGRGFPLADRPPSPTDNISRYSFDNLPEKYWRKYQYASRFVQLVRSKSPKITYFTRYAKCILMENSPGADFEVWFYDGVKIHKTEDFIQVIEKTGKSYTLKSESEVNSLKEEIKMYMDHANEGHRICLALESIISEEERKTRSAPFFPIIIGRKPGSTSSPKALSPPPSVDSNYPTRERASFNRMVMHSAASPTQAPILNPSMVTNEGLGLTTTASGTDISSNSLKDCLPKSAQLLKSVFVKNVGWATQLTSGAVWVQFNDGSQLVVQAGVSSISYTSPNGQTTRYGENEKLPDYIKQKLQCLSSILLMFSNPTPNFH
measurement-name: pIC50
A value of pIC50 is the negative decimal logarithm of a concentration given in moles per litre.

Query: Give its pIC50 value. Item: "C#CCOc1ccc(Nc2ncc(Cl)c(Nc3ccccc3NC(=O)C=C)n2)c(OC)c1"
Response: 7.60
